Ref: PubChem BioAssay (NCI)

- System: 786-0 renal
- method summary: NCI tumour cell line growth inhibition, 48 h; in the data active means GI50 below about 0.43 µM; inactive means the rest
Bench note: report the call from active, inactive

> print(dat)
                                    molecule  class.assignment
 1           CCOC(=O)Nc1nc2c(F)c(F)c(F)cc2s1          inactive
 2  c1ccc(-c2n(Cc3ccc4ccccc4n3)c3ccccc3[n+]2Cc2ccc3ccccc3n2)cc1          inactive
 3      COC(=O)c1[nH]nc(-c2ccccc2)c1N1CCCCC1          inactive
 4  CC(C)(C)c1ccc(C(=O)N/N=C/c2ccc(O)cc2O)cc1          inactive
 5  CC12C=CC(C)(O1)C1C2c2ccccc2S1(=O)=O (configuration not stated)          inactive
 6  COC(=O)C1CC2(c3ccc(C)cc3)C(c3ccc(C)cc3)=C(c3ccc(C)cc3)C1(c1ccc(C)cc1)S2=O (configuration not stated)          inactive
 7  O=C(c1ccc(O)cc1)c1ccc(C(=O)c2ccc(O)cc2)cc1          inactive
 8  CN(C)CCCNC(=O)c1cc2c3ccccc3[nH]c2c2ncccc12          inactive
 9  COc1cc(C2c3cc4c(cc3C3OC(=O)C2C3CO)OCO4)cc(OC)c1OC (configuration not stated)            active
10  C[C@@H]1CN(Cc2ccc(/C=C/c3n[nH]c4ccc5nc(-c6cn[nH]c6C(F)(F)F)c6c(c5c34)CCCC6)cc2)C[C@H](C)O1          inactive

Returns: the outcome recorded for COc1cc(C(=O)/C=C/c2c(-c3ccc(F)cc3)nc3sccn23)cc(OC)c1OC in this assay.
inactive

Hi, sorry to bother you, what did the test record for O=C(O)c1cn(C2CC2)c2cc(N3CCN(S(=O)(=O)c4ccc(Cl)c(Cl)c4)CC3)c(F)cc2c1=O ?
inactive

Give the logged outcome of this assay for the following molecule: Cc1ccc(C(=O)Nc2ccc(CN3CCN(C)CC3)c(C(F)(F)F)c2)cc1C#Cc1cncc2ncccc12
inactive

Call for entry O=S(=O)(NC(=S)Nc1ccccc1)c1ccc(N2N=C3c4ccccc4CC3C2c2ccc(Cl)cc2)cc1 (configuration not stated) :
inactive

// param item: O=C1C=C(N2CC2)c2ccccc2C1=O ; yields the recorded call
inactive

For COc1cc(/C=C/C(=O)c2c(C)n([O-])c3cc(C)c(C)cc3[n+]2=O)cc(OC)c1OC , what call appears in the results of this test?
inactive

# lookup: test call for O=C(Cc1ccccc1)Nc1nnc(CCSCCc2nnc(NC(=O)Cc3ccccc3)s2)s1
inactive

###

Here the recorded TGI is given for each entry.
- System: OVCAR-4 ovarian
- method summary: NCI tumour cell line growth inhibition, 48 h

Below, 5 compounds whose answers are already recorded.
compound	system	value reported
c1ccc(C(=NNc2nc3ccccc3[nH]2)c2ccccn2)nc1	OVCAR-4 ovarian	> 100 µM
Oc1c(I)cc(I)cc1CNCCCN(Cc1ccccn1)Cc1ccccn1	OVCAR-4 ovarian	2.31 µM
COC(=O)C[C@H](COCc1ccccc1)NC(=O)C[C@H](COCc1ccccc1)NC(=O)C[C@H](COCc1ccccc1)NC(=O)OC(C)(C)C	OVCAR-4 ovarian	17.4 µM
O=C1c2ccccc2C2(c3ccc(Cl)cc3)NCc3ccccc3CN12 (stereo unspecified)	OVCAR-4 ovarian	79.3 µM
O=C1CC(c2ccccc2)Cc2nc3ccc(Cl)cc3cc21 (stereo unspecified)	OVCAR-4 ovarian	> 100 µM

# next compound below
Provide measured TGI on OVCAR-4 ovarian for O=C1c2cnccc2Cc2cccc3c2N1c1ccccc1S3 please.
68.4 µM
